# ASSAYED SYSTEM: Mcl-1 ΔC23 (UniProt Q07820)
# PROTOCOL DETAILS: AlphaScreen GST detection; competitor: biotinylated BakBH3 peptide
Bridge positions count the residues as written; N and C are the ends.
READOUT TYPE: pIC50
pIC50 here: minus log base 10 of the concentration, concentration in moles per litre.

// query Request the reported pIC50 associated with Ac-IAQELRRIGDEF-NH2 [Linear 12mer Ac-…-NH2]
// result 6.40

// query Fill in: pIC50 of Ac-IAQQLRRIGDQF-NH2 [L2 Ac-…-NH2] is ___
// result 6.19

// query Bench note: what pIC50 did Ac-IAQELRRIGDEF-NH2 (linker 4-11 via 1,5‑diaminopentane) [Acetyl-IAQ(E1)LRRIGD(E2)F-amide with a 1,5-diaminopentane linker (second position)] show?
// result 8.52
